Assay: gradient 5% acetonitrile 3 min, to 50% in 2 min, to 85% in 15 min, held 3 min, 100 µL/min
Details: column: Zorbax Extend-C18 2.1 x 50 mm; eluents: water / acetonitrile, 0.1% formic acid
measured endpoint: RP-LC retention time (s)
Could you give me the number in s? Just the number is fine.

INPUT: # RP-LC retention time lookup, item O=C(C1CCCO1)N1CCC(c2cnn(-c3cccc(F)c3)c2)CC1 (stereo not given)
OUTPUT: 792

INPUT: Also, "O=C(Cn1ccc2sccc2c1=O)Nc1ccc(Cl)cc1" please.
OUTPUT: 776

INPUT: Also, "CN(C)S(=O)(=O)c1ccc(C(=O)N2CCC(Oc3nc4ccccc4s3)CC2)cc1" please.
OUTPUT: 892

INPUT: Also, "COc1ccc(-c2nc(-c3ccc4oc(-c5ccccc5)nc4c3)no2)cn1" please.
OUTPUT: 1430

INPUT: Also, "CN1CCN(C(=O)c2csc(N3CCN(c4ccc(Cl)cc4)CC3)n2)CC1" please.
OUTPUT: 686

INPUT: Also, "Cc1nc(-c2cnccn2)nc2c1CCC(=O)N2Cc1ccc(F)cc1" please.
OUTPUT: 732

INPUT: Also, "Cc1nn2c(CNC(=O)c3ccoc3)c(-c3ccccc3)nc2s1" please.
OUTPUT: 742

INPUT: Also, Cc1ccc2c(c1)N(S(C)(=O)=O)CCC(C(=O)Nc1ccc(Cl)cc1C)O2 (stereo not given) please.
OUTPUT: 1000

INPUT: Also, CCN1c2cc(C(=O)NCc3cccs3)ccc2C(=O)N2CCCCC21 (stereo not given) please.
OUTPUT: 822

INPUT: Also, "COc1ccc(-c2ccc3nc(N4CCC(C(=O)N5CCOCC5)CC4)sc3n2)cc1" please.
OUTPUT: 822

INPUT: Also, "CCSc1cccc(C(=O)N2CC(=O)Nc3ccccc32)c1" please.
OUTPUT: 756

INPUT: Also, "Cc1noc(-c2nn(C)c3c2CN(C(=O)c2ccc(Br)cc2)CC3)n1" please.
OUTPUT: 774

INPUT: Also, "c1ccc(CNc2cc(-n3ccnc3)ncn2)cc1" please.
OUTPUT: 610

INPUT: Also, "O=C(NCc1ccc2c(c1)CCCN2C(=O)C1CCC1)c1cc(F)ccc1Cl" please.
OUTPUT: 884

INPUT: Also, Cc1ccc(-c2nc3cnccn3c2NCCC(=O)NC(C)c2ccccn2)cc1 (stereo not given) please.
OUTPUT: 586

INPUT: Also, "CC(C)CNC(=O)CN1CCN(Cc2ccc(F)cc2Cl)C1=O" please.
OUTPUT: 790

INPUT: Also, COc1ccc(C2C(C(=O)NCCN(C)C)c3cc(OC)c(OC)cc3C(=O)N2C)cc1 (stereo not given) please.
OUTPUT: 597

INPUT: Also, "Cc1ccc(NC(=O)C2CCN(c3nnc4ccc(Cl)cn34)CC2)c(F)c1" please.
OUTPUT: 749

INPUT: Also, "Cc1nn(-c2ccccc2)c(C)c1S(=O)(=O)N1CCC(C(=O)NCc2cccs2)CC1" please.
OUTPUT: 876

INPUT: Also, "O=C(Cn1nc(N2CCOCC2)c2ccccc2c1=O)Nc1cccc(Br)c1" please.
OUTPUT: 844

INPUT: Also, "CCCN1C(=O)COc2ccc(-c3noc(-c4cccc(N(C)C)c4)n3)cc21" please.
OUTPUT: 1300

INPUT: Also, CN(Cc1ccc(Cl)c(F)c1)C1CCc2nnc(C3CCOCC3)n2CC1 (stereo not given) please.
OUTPUT: 590

INPUT: Also, N#Cc1ccc(CN2CCC3(CCC3O)CC2)cc1 (stereo not given) please.
OUTPUT: 570

INPUT: Also, "O=C(CN1CCN(c2ncccn2)CC1)N1c2ccccc2Sc2ccccc21" please.
OUTPUT: 602

INPUT: Also, "Cc1sc(-c2cc(C(F)(F)F)on2)cc1S(=O)(=O)NCc1ccc(N(C)C)cc1" please.
OUTPUT: 982

INPUT: Also, "Cn1nc2n(c1=O)CCN(C(=O)c1cscn1)CC2" please.
OUTPUT: 560

INPUT: Also, O=C(NOCC(O)CO)c1cc(Br)c(F)c(F)c1Nc1ccc(I)cc1F (stereo not given) please.
OUTPUT: 879

INPUT: Also, "CCN1C(=O)C2(CCN(C(=O)c3cc(C)n(C)n3)CC2)c2ccccc21" please.
OUTPUT: 750

INPUT: Also, "CCOC(=O)c1[nH]c(C)c(CCC(=O)N2CCC(C(=O)NCc3ccc(OC(C)C)cc3)CC2)c1C" please.
OUTPUT: 850

INPUT: Also, "CCOc1ccc(-c2nc(Cc3noc(-c4cccnc4)n3)c(C)o2)cc1" please.
OUTPUT: 967

----------
Assay: gradient 5% acetonitrile 3 min, to 50% in 2 min, to 85% in 15 min, held 3 min, 100 µL/min
Settings: column: Zorbax Extend-C18 2.1 x 50 mm; eluents: water / acetonitrile, 0.1% formic acid
Lab note: compare RP-LC retention time with 800 s, writing 1 (yes) if less and 0 (no) if equal or more.

INPUT: Consider the compound "Cc1ccc(S(=O)(=O)N2CCC(C)(C(=O)NCc3ccccc3C)CC2)c(C)c1" . Is its RP-LC retention time strictly less than 800 s?
OUTPUT: 0 (no)

INPUT: Also, "O=C(CN1CCN(c2ccccc2)CC1)Nc1nc(-c2ccc(Cl)cc2)cs1" please.
OUTPUT: 0 (no)

INPUT: Also, "Cc1cccc(-c2nnc(C)c(N3CCC4(CC3)OCCO4)n2)c1" please.
OUTPUT: 1 (yes)

INPUT: Also, "O=C(Nc1ccccc1F)c1cccn1Cc1noc(-c2ccccc2)n1" please.
OUTPUT: 0 (no)

INPUT: Also, "COc1cc(CNS(=O)(=O)c2cccc(-c3nc(-c4ccccc4)no3)c2)cc(OC)c1OC" please.
OUTPUT: 0 (no)

INPUT: Also, "CCOc1ccc(C(=O)NC2(c3nc(C(C)C)no3)CCCCC2)cc1OCC" please.
OUTPUT: 0 (no)

INPUT: Also, "Cc1cc(C(=O)N2CC(n3cc(COc4ccc(F)cc4)nn3)C2)n(C)n1" please.
OUTPUT: 1 (yes)

INPUT: Also, "Cc1coc2c(C)c3oc(=O)c(CCC(=O)NCCc4ccc(S(N)(=O)=O)cc4)c(C)c3cc12" please.
OUTPUT: 0 (no)

INPUT: Also, "CCc1ccc(NC(=O)C2CCN(c3c(C(=O)N(CC)CC)cnc4snc(C)c34)CC2)cc1" please.
OUTPUT: 1 (yes)

INPUT: Also, "O=C(c1nc(-c2cccc(F)c2)n2c1CCCCC2)N1CCN(c2ccccn2)CC1" please.
OUTPUT: 1 (yes)

INPUT: Also, "O=C(CN1CCN(Cc2ccc(F)cc2Cl)C1=O)NCC1CCCCC1" please.
OUTPUT: 0 (no)

INPUT: Also, "CC(C)c1ccc2c(c1)-c1ccccc1S(=O)(=O)N2CC(=O)N1CC(=O)Nc2ccccc21" please.
OUTPUT: 0 (no)

INPUT: Also, "CCCC(=O)Nc1ccc2nc(N3CCN(c4cc(Cl)ccc4C)CC3)cc(C(=O)O)c2c1" please.
OUTPUT: 1 (yes)

INPUT: Also, CN1C(=O)COc2ccc(-c3csc(NC(=O)C4CCCO4)n3)cc21 (stereo not drawn) please.
OUTPUT: 1 (yes)

INPUT: Also, CCCNC(=O)N1CC(c2nc(C)no2)C2(CCOCC2)C1 (stereo not drawn) please.
OUTPUT: 1 (yes)

INPUT: Also, CCCN(CCC#N)C(=O)CN1CC2=C(C1=O)C(c1ccccc1Cl)NC(=O)N2C (stereo not drawn) please.
OUTPUT: 1 (yes)

----------
Task for the reader: assign each of the following compounds its reported RP-LC retention time.
Test: gradient 5% acetonitrile 3 min, to 50% in 2 min, to 85% in 15 min, held 3 min, 100 µL/min
Details: column: Zorbax Extend-C18 2.1 x 50 mm; eluents: water / acetonitrile, 0.1% formic acid
Express your answer as a number followed by its unit.

INPUT: # RP-LC retention time lookup, item "Cc1cc(C)cc(NC(=O)c2cc(C)n3nc(C)cc3n2)c1"
OUTPUT: 1160 s

INPUT: Also, "CN1C(=O)CC[C@]2(CNC(=O)COc3cccc(Cl)c3)CCC[C@@H]12" please.
OUTPUT: 727 s

INPUT: Also, "Cc1ccc(CN2C(=O)N(c3cccc(F)c3)c3ncccc3S2(=O)=O)cc1" please.
OUTPUT: 1100 s

INPUT: Also, Cc1cc(C(=O)N(CC2CCCO2)c2nc3c(F)cc(F)cc3s2)on1 (configuration not stated) please.
OUTPUT: 1080 s

INPUT: Also, CC1(C)CC(=O)C2=C(C1)Nc1ccccc1N(CC(=O)N1CCOCC1)C2c1cccs1 (configuration not stated) please.
OUTPUT: 721 s

INPUT: Also, "COc1cccc(Cn2c(=O)c3sccc3n(Cc3nc(-c4ccc(Cl)c(F)c4)no3)c2=O)c1" please.
OUTPUT: 1180 s

INPUT: Also, "COc1ccccc1CNC(=O)Cc1csc(NC(=O)Nc2cccc(Cl)c2)n1" please.
OUTPUT: 837 s
